Assay: qHTS assay to identify small molecule agonists of the androgen receptor (AR) signaling pathway in the presence of an antagonist - cell viability counter screen (AID 1259379); further: nearly all actives have a fitted effect of over 25% in size
Settings: MDA-kb2 viability, CellTiter-Fluor, 16 h; series mostly up to 92.4 µM
Excerpt: National Center for Advancing Translational Sciences [NCATS] NIH Chemical Genomics Center [NCGC] U.S. Environmental Protection Agency [EPA] National Institutes of Environmental Health Sciences [NIEHS] National Toxicology Program [NTP] U.S. Food and Drug Administration [FDA] Androgen receptor (AR) is an important member of nuclear receptor family. Its signaling plays a critical role in AR-dependent prostate cancer and other androgen related diseases. […]
Inconclusive results are not listed. Active and inactive are the calls of the source. The call rests on the fitted dose curve; in most records, active means well fitted cell-killing curve with a large enough effect in the repeat runs; inconclusive means weak or mixed curves, or effect the other way; inactive means flat fitted curve, though single readings scatter.
Response enum: active, inactive

• O=C1c2ccccc2C(=O)c2c(O)c(O)cc(O)c21 = active

Hi, do you know how C=CCc1ccccc1OCC(O)CNC(C)C (stereo not drawn) came out in this test?
inactive

Then this compound: `CCN(CC)CCNC(=O)COc1ccc(OC)cc1`
inactive

Then this compound: `CN1C(C(=O)Nc2ccccn2)=C(O)c2sccc2S1(=O)=O`
inactive

Then this compound: `CC(C)(O)c1ccc(CNC(=O)c2cccnc2Oc2ccc3nonc3c2)cc1`
inactive
